Give measured MIC for each item. Keep answers brief.
# Test system: P. aeruginosa (Pa)
# Assay: Broth microdilution minimum inhibitory concentration (MIC)
# Assay type: cell-based
# Condition Notes: Pseudomonas aeruginosa, P. aeruginosa; growth medium supplemented with sodium bicarbonate; read-out: Pa MIC + bicarb

# count of solved cases: 5
CC(C)(N)C(=O)N1CCN(C(=O)Nc2ccn(-c3ccc(CN(CCF)[C@H]4CC[C@H](N)CC4)cc3)c(=O)n2)CC1
> 32 µg/mL
CCN(C(C)Cc1ccc(-n2ccc(NC(=O)N3CCN(C(=O)C(C)(C)N)CC3)nc2=O)cc1)C1CCC(CN)CC1 (centres unmarked)
> 32 µg/mL
C[C@@H]1CN(C(=O)Nc2ccn(-c3ccc(CCN4CCCC(N)CC4)cc3)c(=O)n2)CCN1C(=O)C(C)(C)N (some centres unmarked)
8 to 32 µg/mL
CC(C)(N)C(=O)N1CCN(C(=O)Nc2ccn(-c3ccc(CCCN4CCCC(N)CC4)cc3)c(=O)n2)CC1 (centres unmarked)
> 32 µg/mL
CN(Cc1ccc(-n2ccc(NC(=O)N3CCN(C(=O)C(C)(C)N)CC3)nc2=O)cc1)[C@H]1CC[C@H](N)C1
> 32 µg/mL

Go through the items and report each one's MIC.
1. CC(C)(N)C(=O)N1CCN(C(=O)Nc2ccn(-c3cccc(CCN4CCC(N)CC4)c3)c(=O)n2)CC1
2. CC(C)(N)C(=O)N1CCN(C(=O)Nc2ccn(-c3ccc(CN(CC4CC4)[C@H]4CC[C@H](N)CC4)cc3)c(=O)n2)CC1
3. C[C@](N)(CO)C(=O)N1CCN(C(=O)Nc2ccn(-c3ccc(CCN4CCC[C@@H](N)C4)cc3)c(=O)n2)CC1
4. CN(Cc1ccc(-n2ccc(NC(=O)N3CCN(C(=O)C(C)(C)N)CC3)nc2=O)cc1)CC1CC(N)C1 (centres unmarked)
5. C[C@](N)(CO)C(=O)N1CCN(C(=O)Nc2ccn(-c3ccc(CN4CC(CCN)C4)cc3)c(=O)n2)CC1
6. CCN(Cc1ccc(-n2ccc(NC(=O)N3CCN(C(=O)C(C)(C)N)CC3)nc2=O)cc1)CC1CC(N)C1 (centres unmarked)
7. C[C@@H]1CN(C(=O)C(C)(C)N)CCN1C(=O)Nc1ccn(-c2ccc(CN3CCC(CN)CC3)cc2)c(=O)n1
8. CC(C)(N)C(=O)N1CCN(C(=O)Nc2ccn(-c3ccc(CN4CC(CCN)C4)cc3)c(=O)n2)CC1

1: > 32 µg/mL; 2: 8 to 32 µg/mL; 3: > 32 µg/mL; 4: > 32 µg/mL; 5: > 32 µg/mL; 6: 8 to 32 µg/mL; 7: > 32 µg/mL; 8: > 32 µg/mL

Give the reported value of MIC for this record: `CN(Cc1ccc(-n2ccc(NC(=O)N3CCN(C(=O)C(C)(C)N)CC3)nc2=O)cc1)[C@H]1CC[C@H](N)CC1`
8 to 32 µg/mL

###

Give measured IC50 for each item. Keep answers brief.
# Tested System: Rabbit Reticulocyte Lysate (eukaryotic protein synthesis)
# Assay: Rabbit reticulocyte lysate luciferase assay (inhibition of eukaryotic protein synthesis)
# Assay type: biochemical
# Condition Notes: class by IC50 or % inhibition @ 1 μM, read-out: Rabbit reticulocyte IC50 (μM/% inhib.)

# count of solved cases: 2
CN(Cc1ccc(-n2ccc(NC(=O)N3CCN(C(=O)C(C)(C)N)CC3)nc2=O)cc1Cl)C1CCC(N)CC1 (stereo not drawn)
> 1 µM
CC(C)(N)C(=O)N1CCN(C(=O)Nc2ccn(-c3ccc(CN(CC4CC4)[C@H]4CC[C@H](N)CC4)cc3)c(=O)n2)CC1
> 1 µM

Then there is this molecule:
Give the reported value of IC50 for this record: CC(Cc1ccc(-n2ccc(NC(=O)N3CCN(C(=O)C(C)(C)N)CC3)nc2=O)cc1)N(C)[C@H]1CC[C@@H](N)CC1 (stereo partly drawn) [Compound 175]
> 1 µM

###

Give measured MIC for each item. Keep answers brief.
# Tested on: P. aeruginosa (Pa)
# Assay: Broth microdilution minimum inhibitory concentration (MIC)
# Type: cell-based
# Condition Notes: Pseudomonas aeruginosa, P. aeruginosa; growth medium with sodium bicarbonate; read-out: Pa MIC + bicarb

# count of solved cases: 3
NC1CCCN(CCc2ccc(-n3ccc(NC(=O)N4CCC5(CC4)CNC5)nc3=O)cc2)CC1 (stereo not shown)
> 32 µg/mL
CC(C)(N)C(=O)N1CCN(C(=O)Nc2ccn(-c3ccc(CCN[C@H]4CC[C@H](N)CC4)cc3)c(=O)n2)CC1
> 32 µg/mL
CCN(CC1CNC1)C(C)Cc1ccc(-n2ccc(NC(=O)N3CCN(C(=O)C(C)(C)N)CC3)nc2=O)cc1 (stereo not shown)
> 32 µg/mL

Go through the items and report each one's MIC.
1. Cc1cc(-n2ccc(NC(=O)N3CCN(C(=O)C(C)(C)N)CC3)nc2=O)ccc1CN(C)C1CCC(N)CC1 (stereo not shown)
2. CCN(Cc1ccc(-n2ccc(NC(=O)N3CCN(C(=O)C(C)(C)N)C[C@H]3C)nc2=O)cc1)C1CCC(N)CC1 (stereo partly shown)
3. CC(C)(N)C(=O)N1CCN(C(=O)Nc2ccn(-c3ccc(CNCC4CNC4)cc3)c(=O)n2)CC1
4. CC(C)(N)C(=O)N1CCN(C(=O)Nc2ccn(-c3ccc(CNCC4(O)CNC4)cc3)c(=O)n2)CC1

1. 8 to 32 µg/mL
2. 8 to 32 µg/mL
3. > 32 µg/mL
4. > 32 µg/mL

###

# Test system: A. baumannii (Ab)
# Assay: Broth microdilution minimum inhibitory concentration (MIC)
# Format: cell-based
# Condition Notes: Acinetobacter baumannii; A. baumannii; growth medium supplemented with sodium bicarbonate; read-out: Ab + bicarb MIC
Attribute Measured: MIC

# count of solved cases: 2
C[C@](N)(CO)C(=O)N1CCN(C(=O)Nc2ccn(-c3ccc(CN4CC(CCN)C4)cc3)c(=O)n2)CC1
> 32 µg/mL
C[C@](N)(CO)C(=O)N1CCN(C(=O)Nc2ccn(-c3cc(CN4CCC(N)CC4)cc(OC(F)(F)F)c3)c(=O)n2)CC1
> 32 µg/mL

Then there is this compound:
Quote MIC with test system A. baumannii (Ab) for CC(Cc1ccc(-n2ccc(NC(=O)N3CCN(C(=O)C(C)(C)N)CC3)nc2=O)cc1)NC[C@@H]1CCC[C@@H](N)C1 (mixture of isomers)
> 32 µg/mL

###

Give measured MIC for each item. Keep answers brief.
# Test system: A. baumannii (Ab)
# Assay: Broth microdilution minimum inhibitory concentration (MIC)
# Assay type: cell-based
# Condition Notes: Acinetobacter baumannii; A. baumannii; growth medium supplemented with sodium bicarbonate; read-out: Ab + bicarb MIC

CCN(C[C@H]1C[C@@H](N)C1)C(C)Cc1ccc(-n2ccc(NC(=O)N3CCN(C(=O)C(C)(C)N)CC3)nc2=O)cc1 (stereo partly shown)
8 to 32 µg/mL
C[C@@H]1CN(C(=O)C(C)(C)N)CCN1C(=O)Nc1ccn(-c2ccc(CCN3CCCC(N)CC3)cc2)c(=O)n1 (stereo partly shown)
< 8 µg/mL
CC(N)[C@H]1CCN(CCc2ccc(-n3ccc(NC(=O)N4CCN(C(=O)C(C)(C)N)CC4)nc3=O)cc2)C1 (stereo partly shown)
> 32 µg/mL
CC(C)CN(Cc1ccc(-n2ccc(NC(=O)N3CCN(C(=O)C(C)(C)N)CC3)nc2=O)cc1)[C@H]1CC[C@H](N)CC1
< 8 µg/mL
CCN(C(C)Cc1ccc(-n2ccc(NC(=O)N3CCN(C(=O)C(C)(C)N)CC3)nc2=O)cc1)C1CCC(CN)CC1 (stereo not shown)
> 32 µg/mL

Go through the items and report each one's MIC.
1. CC(C)(N)C(=O)N1CCN(C(=O)Nc2ccn(-c3ccc(C(N)C(=O)N4CC(N)C4)cc3)c(=O)n2)CC1 (stereo not shown)
2. CC(C)(N)C(=O)N1CCN(C(=O)Nc2ccn(-c3ccc(CCN4CCC[C@@H](CN)C4)cc3)c(=O)n2)CC1

1. > 32 µg/mL
2. > 32 µg/mL

###

# Test system: A. baumannii (Ab)
# Assay: Broth microdilution minimum inhibitory concentration (MIC)
# Format: cell-based
# Condition Notes: Acinetobacter baumannii; A. baumannii; growth medium with sodium bicarbonate; read-out: Ab + bicarb MIC
Attribute Measured: MIC

# count of solved cases: 5
CC(COc1ccc(-n2ccc(NC(=O)N3CCN(C(=O)C(C)(C)N)CC3)nc2=O)cc1)N1CC[C@@H](CN)C1 (some centres unmarked)
> 32 µg/mL
CN(Cc1ccc(-n2ccc(NC(=O)N3CCN(C(=O)C(C)(C)N)CC3)nc2=O)cc1F)C1CCC(N)CC1 (centres unmarked)
8 to 32 µg/mL
CC(Cc1ccc(-n2ccc(NC(=O)N3CCN(C(=O)C(C)(C)N)CC3)nc2=O)cc1)N(C)[C@H]1CC[C@H](N)C1 (some centres unmarked)
> 32 µg/mL
C[C@@H]1CN(Cc2ccc(-n3ccc(NC(=O)N4CCN(C(=O)C(C)(C)N)CC4)nc3=O)cc2)CC[C@H]1N
> 32 µg/mL
CC(N)C1CCN(Cc2ccc(-n3ccc(NC(=O)N4CCN(C(=O)C(C)(C)N)CC4)nc3=O)cc2)CC1 (centres unmarked)
> 32 µg/mL

Go through the items and report each one's MIC.
1. CC(C)(N)C(=O)N1CCN(C(=O)Nc2ccn(-c3ccc(CN4CC(N5CC(N)C5)C4)cc3)c(=O)n2)CC1
2. CC(C)(N)C(=O)N1CCN(C(=O)Nc2ccn(-c3ccc(CC4(N5CCC(N)CC5)CC4)cc3)c(=O)n2)CC1
3. CC(C)(N)C(=O)N1CCN(C(=O)Nc2ccn(-c3ccc(CNC4CCC(N)CC4)c(Cl)c3)c(=O)n2)CC1 (centres unmarked)
4. CC1CN(Cc2ccc(-n3ccc(NC(=O)N4CCN(C(=O)C(C)(C)N)CC4)nc3=O)cc2)CCC1N (centres unmarked)
5. CCN(Cc1ccc(-n2ccc(NC(=O)N3CCN(C(=O)C(C)(C)N)[C@H](C)C3)nc2=O)cc1)C1CCC(N)CC1 (some centres unmarked)
6. CCN(Cc1ccc(-n2ccc(NC(=O)N3CCN(C(=O)C(C)(C)N)CC3)nc2=O)cc1Cl)C1CCC(N)CC1 (centres unmarked)
7. Cc1cc(-n2ccc(NC(=O)N3CCN(C(=O)C(C)(C)N)CC3)nc2=O)ccc1CNC1CCC(N)CC1 (centres unmarked)

1: > 32 µg/mL; 2: > 32 µg/mL; 3: > 32 µg/mL; 4: > 32 µg/mL; 5: < 8 µg/mL; 6: < 8 µg/mL; 7: > 32 µg/mL
